This listing pairs compounds with measured remaining activity.
System: Aerobactin synthetase IucA (Klebsiella pneumoniae)
Assay: inhibition of K. pneumoniae IucA enzyme – biochemical, Tocris library, absorbance (AID 1345561);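 also: 100% = enzyme without compound and 0% = no enzyme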
Conditions: purified IucA enzyme assay, absorbance (OD) read-out; hits give low values; concentration not given here
measured.quantity: remaining activity (%)

In [3]: df
Out[3]:
                                      smiles                               test_system   measured_quantity  unit  observed_value
 0  OC[C@H]1O[C@@H](n2cnc3c(N[C@H]4CCC[C@@H]4O)ncnc32)[C@H](O)[C@@H]1O  Aerobactin synthetase IucA (Klebsiella pneumoniae)  remaining activity     %             116
 1                    Nc1nc2c(ccc3ccccc32)s1  Aerobactin synthetase IucA (Klebsiella pneumoniae)  remaining activity     %             121
 2  OC[C@H]1O[C@@H](n2cnc3c(NC4CCCC4)nc(Cl)nc32)[C@H](O)[C@@H]1O  Aerobactin synthetase IucA (Klebsiella pneumoniae)  remaining activity     %             122
 3  N#Cc1cc2[nH]c(=O)c(=O)[nH]c2cc1[N+](=O)[O-]  Aerobactin synthetase IucA (Klebsiella pneumoniae)  remaining activity     %             113
 4   Cc1ccccc1N=Nc1ccc(NC(=O)c2ccnn2C)c(C)c1  Aerobactin synthetase IucA (Klebsiella pneumoniae)  remaining activity     %             109
 5              COc1cc(NC(=O)c2ccccn2)ccc1Cl  Aerobactin synthetase IucA (Klebsiella pneumoniae)  remaining activity     %             122
 6  Nc1nc(NCCc2ccc(O)cc2)nc2nc(-c3ccco3)nn12  Aerobactin synthetase IucA (Klebsiella pneumoniae)  remaining activity     %             109
 7   Cc1cc2nc3c(=O)[nH]c(=O)nc-3n(C)c2cc1C=O  Aerobactin synthetase IucA (Klebsiella pneumoniae)  remaining activity     %             110
 8   Cc1ccc(CC2(O)CCN(CCOc3ccc(O)cc3)CC2)cc1  Aerobactin synthetase IucA (Klebsiella pneumoniae)  remaining activity     %            89.8
 9   CCOC(=O)c1ncc2[nH]c3cccc(OC(C)C)c3c2c1C  Aerobactin synthetase IucA (Klebsiella pneumoniae)  remaining activity     %            96.4
10  N=C(N)SCCc1ccc(OCc2ccc([N+](=O)[O-])cc2)cc1  Aerobactin synthetase IucA (Klebsiella pneumoniae)  remaining activity     %             106

###

Assay: viability loss in pontine glioma line – cell-based, SU-DIPG-XVII, MIPE5.0, CellTiter-Glo, qHTS, dose response (AID 1347060);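 as to AC50: cells exposed to compound for 48 hours before viability readout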
Details: CellTiter-Glo ATP luminescence
Results filed as inconclusive are left out. Active and inactive are the calls of the source. Cut-off not given; nearly all actives show AC50 up to about 26 µM.
Classes used: 1 (yes) (active), 0 (no) (inactive)

>>> print(df.to_string())
                                   compound  class_assignment
0  COc1cc(N2CCC(N3CCN(C)CC3)CC2)ccc1Nc1ncc(Cl)c(Nc2ccccc2S(=O)(=O)C(C)C)n1           1 (yes)
1  COc1ccc(Cl)c(Nc2ncnc3cc(OCC4CCN(C)CC4)c(OC)cc23)c1           1 (yes)
2  CC#Cc1cncc(-c2ccc3c(c2)[C@@]2(N=C(C)C(N)=N2)C2(CCC(OC)CC2)C3)c1 (some centres undefined)            0 (no)
3  COc1cc(N2CCC(N3CCN(C)CC3)CC2)ccc1Nc1ncnc(Nc2ccccc2S(=O)(=O)C(C)C)n1           1 (yes)

The measured values listed here are drawn from PubChem BioAssay.
